Data provenance is patent US20220242906A1.

biological target: T1, elongation initiation factor 4E (eIF4E) (UniProt P06730 2-217, limits assumed); experiment: SPR (Biacore T100), eIF4E immobilised on CM5 chip, peptide as analyte
T1 construct: mature; In SPR it was amine-coupled to a CM5 chip with m7GTP present; also called full-length eIF4E; GS-eIF4E (biotinylated form used only for phage panning)
T1 sequence (P06730 2-217 limits assumed): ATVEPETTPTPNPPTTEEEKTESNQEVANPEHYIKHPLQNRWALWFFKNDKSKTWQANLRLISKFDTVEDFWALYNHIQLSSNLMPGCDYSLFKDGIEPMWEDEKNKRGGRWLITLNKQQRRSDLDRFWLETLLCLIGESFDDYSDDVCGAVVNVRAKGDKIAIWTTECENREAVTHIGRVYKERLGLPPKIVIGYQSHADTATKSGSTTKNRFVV
experimentalEndpoint: Fold change (KD against EE-2)
In your response, the unit should come after the numeric value.

Below are worked cases with known answers.
[[record]]
binder = "ACEMGFFKDCG (HELM PEPTIDE1{A.C.E.M.G.F.F.K.D.C.G.[am]}$PEPTIDE1,PEPTIDE1,2:R3-10:R3$$$V2.0; SMILES CSCC[C@@H]1NC(=O)[C@H](CCC(=O)O)NC(=O)[C@@H](NC(=O)[C@H](C)N)CSSC[C@@H](C(=O)NCC(N)=O)NC(=O)[C@H](CC(=O)O)NC(=O)[C@H](CCCCN)NC(=O)[C@H](Cc2ccccc2)NC(=O)[C@H](Cc2ccccc2)NC(=O)CNC1=O, EE-02 with Q8K) [EE-39 (ACEMGFFKDCG)]"
result = "0.5 fold"

[[record]]
binder = "CEMGFFADC (HELM PEPTIDE1{C.E.M.G.F.F.A.D.C.[am]}$PEPTIDE1,PEPTIDE1,1:R3-9:R3$$$V2.0; SMILES CSCC[C@@H]1NC(=O)[C@H](CCC(=O)O)NC(=O)[C@@H](N)CSSC[C@@H](C(N)=O)NC(=O)[C@H](CC(=O)O)NC(=O)[C@H](C)NC(=O)[C@H](Cc2ccccc2)NC(=O)[C@H](Cc2ccccc2)NC(=O)CNC1=O, EE-02 without A1 and G11 and with Q8A) [EE-44 (CEMGFFADC)]"
result = "0.4 fold"


Ask: Which Fold change (KD against EE-2) reading was recorded for the binder ACEMGFFGDCG (HELM PEPTIDE1{A.C.E.M.G.F.F.G.D.C.G.[am]}$PEPTIDE1,PEPTIDE1,2:R3-10:R3$$$V2.0; SMILES CSCC[C@@H]1NC(=O)[C@H](CCC(=O)O)NC(=O)[C@@H](NC(=O)[C@H](C)N)CSSC[C@@H](C(=O)NCC(N)=O)NC(=O)[C@H](CC(=O)O)NC(=O)CNC(=O)[C@H](Cc2ccccc2)NC(=O)[C@H](Cc2ccccc2)NC(=O)CNC1=O, EE-02 with Q8G) [EE-40] ?
Result: 1.9 fold

Ask: Next binder: ACEMGFFLDCG (HELM PEPTIDE1{A.C.E.M.G.F.F.L.D.C.G.[am]}$PEPTIDE1,PEPTIDE1,2:R3-10:R3$$$V2.0; SMILES CSCC[C@@H]1NC(=O)[C@H](CCC(=O)O)NC(=O)[C@@H](NC(=O)[C@H](C)N)CSSC[C@@H](C(=O)NCC(N)=O)NC(=O)[C@H](CC(=O)O)NC(=O)[C@H](CC(C)C)NC(=O)[C@H](Cc2ccccc2)NC(=O)[C@H](Cc2ccccc2)NC(=O)CNC1=O, EE-02 with Q8L) [EE-41 (ACEMGFFLDCG)]
Result: 0.9 fold
